tested on: HeLa S-3 cells; assay: Inhibition of cell growth of HeLa cells (SRB); format: cell-based, human; conditions: Homo sapiens, HeLa S3, 48 h, 2 days of treatment, replicate experiments
property: GI50 (nM)
Write the value in nM as a bare number.

Some compounds with known GI50 results, for comparison:
{"columns": ["compound", "property", "value"],
 "data": [
  ["CC(=O)N[C@H]1CC[C@H](Nc2nc(NCc3ccc(-c4cccs4)nc3)c3ncn(C(C)C)c3n2)CC1 [Compound 200]", "GI50", 300],
  ["CC(=O)N[C@H]1CC[C@H](Nc2nc(NCc3ccc(-c4ccco4)cc3)c3ncn(C(C)C)c3n2)CC1 [Compound 182]", "GI50", 300],
  ["CCn1cnc2c(Nc3cccc(Cl)c3)nc(N[C@H]3CCCC[C@H]3N)nc21 [Compound 125, reference compound]", "GI50", 3000]
]}

Now take the following compound into account.
Ask | Form field: GI50 recorded for CC[C@H](CO)Nc1nc(NCc2ccc(-c3cccc(NC(C)=O)c3)cc2)c2ncn(C(C)C)c2n1 [Compound 5] with HeLa S-3 cells (enter value)
Reply | 5000

Reference for the values: patent US20030087906A1
